Property: growth; scope: individual compounds
system: RPMI-8226 leukemia; test: NCI-60 one-dose screen, 48 h (100 = growth as untreated, 0 = no growth, -100 = all killed); conditions: 10 µM unless noted
Compounds without any hit were thinned out: in the full panel of roughly 83,000, 20% have a hit.
Express the result in % but write the number alone.

# annotated cases, reported growth shown
{"compound": "Fc1ccc2c(c1)c(-c1nc(-c3c[nH]c4ncccc34)cs1)cn2CCCN1CCCCC1", "tested on": "RPMI-8226 leukemia", "growth (%)": -21.1}
{"compound": "O=C1c2cccc3cccc(c23)C(=O)N1CC#Cc1ccc2c3c(cccc13)C(=O)N(CCN1CCNCC1)C2=O", "tested on": "RPMI-8226 leukemia", "growth (%)": 8.66}
{"compound": "O=S(=O)(NCCNc1cc(-c2cn(-c3ccccc3)nc2-c2cccc(O)c2)ccn1)c1ccc(Cl)cc1", "tested on": "RPMI-8226 leukemia", "growth (%)": 12.8}
{"compound": "CC1(C)CC[C@]2(C(=O)NCCNCCN)CC[C@]3(C)C(=CC[C@@H]4[C@@]5(C)CCC(=O)C(C)(C)[C@@H]5CC[C@]43C)[C@@H]2C1", "tested on": "RPMI-8226 leukemia", "growth (%)": -19.9}
{"compound": "CC(C)=CCC[C@](C)(O)[C@H]1CC[C@]2(C)[C@@H]1CC[C@@H]1[C@@]3(C)C/C(=C/c4cccc([N+](=O)[O-])c4)C(=O)C(C)(C)[C@@H]3CC[C@]12C", "tested on": "RPMI-8226 leukemia", "growth (%)": 59.9}

Form field: growth recorded for Nc1c2c(nc3ccc(Br)cc13)CC(c1ccccc1)CC2=O (configuration not stated) with RPMI-8226 leukemia (enter value)
17.8

Continue with CCN1CCN(C(=O)[C@@]2(C)CC[C@]3(C)CC[C@]4(C)C(=CC(=O)[C@@H]5[C@@]6(C)CC[C@H](OCCC#N)C(C)(C)[C@@H]6CC[C@]54C)[C@@H]3C2)CC1
63.2

====

Listed compounds paired with reported growth
system: SF-268 CNS; assay: NCI-60 one-dose screen, 48 h (100 = growth as untreated, 0 = no growth, -100 = all killed); conditions: 10 µM unless noted
About 83,000 compounds went through this panel and 20% of them were active in at least one assay; those are over-represented in the sample as a whole.
A number alone suffices; assume %.

Solved entries (count: 5):
{"compound": "Oc1cccc2ccc(N/N=C/c3cc(CN4CCCCC4)c(O)c4ncccc34)nc12", "growth (%)": 12.6}
{"compound": "S=c1[nH]nc2ccccn12", "growth (%)": 117}
{"compound": "COc1ccc(C(=O)c2ccc(C)cc2)c(OC)c1OC", "growth (%)": 85.9}
{"compound": "O=c1c2sc3ncc(Br)cc3c2ncn1-c1cccc(Cl)c1", "growth (%)": 64.1}
{"compound": "CCOC(=O)c1ccc2c(c1)[n+](=O)c(C(=O)C1CCCS1)c(C(F)(F)F)n2[O-] (stereo not given)", "growth (%)": -89.6}

Fill in the blank: the reported growth of COc1ccc(OC)c(-c2c(C#N)c(-c3ccco3)nc3c2c(-c2ccccc2)nn3-c2ccccc2)c1 is ____.
96.2

Subsequent entry: CC(=O)O[C@@H]1CCN2C(=O)N(C)c3ccccc3[C@@H]2C1
113

Input O=c1[nH]ncc(Br)c1Br
-18.3
